Taken from ChEMBL document CHEMBL1201862.

# Test system: HCC 2998
# method-notes: NCI tumour cell line growth inhibition, 48 h
The source made the active and inactive calls. Rule as the data show it: active = GI50 up to about 1.1 µM and inactive = higher. Square brackets hold non-standard residues; d marks the D form. Peptide text beside a SMILES is read from it. ξ: configuration not given here. ξ2Thi = NC(Cc1cccs1)C(=O)O; ξR = N=C(N)NCCCC(N)C(=O)O; ξI = CCC(C)C(N)C(=O)O; ξL = CC(C)CC(N)C(=O)O; ξK = NCCCCC(N)C(=O)O; ξT = CC(O)C(N)C(=O)O; ξA = CC(N)C(=O)O
I'd appreciate it if you could supply GI50 values for the items below.

CCC(CON(C)c1ccccc1)(SC)SC: > 100 µM (inactive)
O=[As](O)(O)c1ccc2nc3cc([As](=O)(O)O)ccc3nc2c1: > 100 µM (inactive)
OCC1OC(n2cnc3cccnc32)CC1O (centres undefined): > 100 µM (inactive)
CCOC(=O)c1ccc(Nc2nc3cc(C(F)(F)F)ccc3nc2C(=O)OCC)cc1: 22.1 µM (inactive)
NC(=O)C1=CC2C3C=CC2(O)C(=O)OC3O1 (centres undefined): 12.2 µM (inactive)

List GI50 for every entry below, keeping the order given.
1. COc1ccc2c(-c3cc4ccccc4o3)cc(=O)oc2c1
2. CC1(C)OC2COC3([C@@H]4OC(C)(C)O[C@@H]4CO)OC(C)(C)OC3C2O1 (some centres undefined)
3. CCC(C)C(NC(=O)C(Cc1cccs1)NC(=O)C(CC(C)C)NC(=O)C(CC(C)C)NC(=O)C(CCCCN)NC(=O)C(CCCN=C(N)N)NC(=O)[C@H](Cc1ccc(O)cc1)NC(=O)C(NC(=O)C(C)NC(=O)C(N)CC(C)C)C(C)O)C(=O)NC(CC(C)C)C(N)=O (some centres undefined) (H-[ξL][ξA][ξT]Y[ξR][ξK][ξL][ξL][ξ2Thi][ξI][ξL]-NH2)

(A)
> 55.1 µM (inactive)
> 100 µM (inactive)
> 50 µM (inactive)

Reported GI50 for OC1CCSc2ccccc21 (centres undefined) was > 100 µM (inactive)

====

# Test system: SNB-75
# method-notes: NCI tumour cell line growth inhibition, 48 h
The source made the active and inactive calls. Rule as the data show it: active = GI50 up to about 1.1 µM and inactive = higher.
Permitted responses: yes (1) = active, no (0) = inactive

CCOC(=O)[C@H]1Nc2ccc(Cl)cc2[C@H]2c3ccccc3O[C@H]21: no (0)
C[C@@H](NC(=O)Cn1c(Cl)nc2ccccc21)c1ccccc1: no (0)
COc1cc(/C=C2\CCC(CN(C)C)C2=O)ccc1OC(=O)c1ccccc1 (stereo not given): no (0)
COc1ccc(C[C@H]2NC[C@H](OC(C)=O)[C@H]2OC(C)=O)cc1: yes (1)

Here's the next entry for you.
(Q) Query: recorded result category for Nc1ncnc2c1ncn2[C@]1(CO)C=C(CO)C(O)C1O (stereo not given in full) in this test
(A) no (0)

====

# Test system: SNB-19
# method-notes: NCI tumour cell line growth inhibition, 48 h
Calls of active or inactive are those of the source. No stated cut-off is given here; in the data, active = GI50 up to about 1.1 µM and inactive = higher.
I'd appreciate it if you could supply GI50 values for the items below.

List GI50 for every entry below, keeping the order given.
1. O=c1c(NCc2ccccc2)c(C2(c3ccccc3F)SCCCS2)c1=O
2. NC1NCCC(=O)N1CCc1c[nH]c2ccccc12 (stereo not given)
3. O=C1OC(c2ccccc2)N(C(=O)c2ccccc2)C1Cc1ccc(OCc2ccccc2)cc1 (stereo not given)

(A)
> 100 µM (inactive)
33.7 µM (inactive)
> 100 µM (inactive)

List GI50 for every entry below, keeping the order given.
1. Cc1ccc(S(=O)(=O)NC(=O)NCCc2ccccc2)cc1
2. Cc1cc(C)c2c(n1)S(=O)(=O)N(CCCN1CCN(c3cccc(Cl)c3)CC1)C(C(=O)c1ccc(Br)cc1)=C2O

(A)
1: > 100 µM (inactive); 2: 20.9 µM (inactive)

====

# Test system: HCC 2998
# method-notes: NCI tumour cell line growth inhibition, 48 h
Activity calls are given as the source filed them. Cut-off read from the data, not from the text of the source: active = GI50 up to about 1.1 µM and inactive = higher.
Permitted responses: 1 (active), -1 (inactive)

# count of solved cases: 8
NCCCNCc1c2ccccc2c(CNCCCN)c2ccccc12: -1
CCOC(=N)/C(=C1\OC(=N)C(c2ccc(Cl)cc2)=C1O)c1ccc(Cl)cc1: -1
Cc1ccc(Nc2nnc3n2S(=O)(=O)c2cc(C)c(Cl)cc2S3)cc1: -1
Nc1ccn(C2OC(CO)C(O)C2(F)F)c(=O)n1 (stereo not given): 1
COc1ccc(N[S+]([O-])c2c(C)cc(C)cc2C)cc1 (stereo not given): -1
Cc1ccc(SCC(CF)OCn2cc(F)c(=O)[nH]c2=O)cc1 (stereo not given): -1
O=c1oc2ccc3ccccc3c2cc1-c1nc2ccc([N+](=O)[O-])cc2o1: -1
OC1c2c(ccc3c2CCC3)CC12Cc1ccccc1C2 (stereo not given): -1

(Q) Query: recorded result category for CN(C)CC1CCC/C(=C\c2ccc(Cl)cc2)C1=O (stereo not given) in this test
(A) -1

(Q) Query: recorded result category for CC(=O)OC[C@H]1[C@@H]2C(CC[C@]13CO3)OC(=O)CC(C)[C@]2(C)CCc1ccoc1 (stereo not given in full) in this test
(A) -1

(Q) Query: recorded result category for O=S(=O)(O)c1ccc2c(/N=N\c3cccc4ccccc34)c(O)c(S(=O)(=O)O)cc2c1 in this test
(A) -1

(Q) Query: recorded result category for O=[N+]([O-])c1ccccc1/C=N/C12CC3CC(CC(C3)C1)C2 in this test
(A) -1

(Q) Query: recorded result category for C=C(C)[C@@H]1CC[C@]2(C(=O)OC3OC(COC4OC(CO)C(OC5OC(C)C(O)C(O)C5O)C(O)C4O)C(O)C(O)C3O)CC[C@]3(C)[C@H](CC[C@@H]4[C@@]5(C)CC[C@H](O)[C@@](C)(CO)[C@@H]5CC[C@]43C)[C@@H]12 (stereo not given in full) in this test
(A) -1

(Q) Query: recorded result category for CCOc1ccccc1/N=N/c1ccc2oc(=O)c(C(=O)Nc3cccc(C)c3)cc2c1 in this test
(A) -1

(Q) Query: recorded result category for COc1ccc2c(c1)-c1c(c3cc(OC)ccc3n1CCN1CCOCC1)CC2 in this test
(A) -1

(Q) Query: recorded result category for CC(=O)OCCCOCn1c(Cc2ccccc2)c(C)c(=O)[nH]c1=O in this test
(A) -1

====

# System: HOP-62
# method-notes: NCI tumour cell line growth inhibition, 48 h
Active and inactive are the calls of the source. No stated cut-off is given here; in the data, active = GI50 up to about 1.1 µM and inactive = higher.
Permitted responses: True (active), False (inactive)

# count of solved cases: 5
CCOC(=O)c1ccc(Nc2nc3cc(C(F)(F)F)ccc3nc2-c2ccccc2)cc1: False
NC(=O)CNC(=O)[C@@H]1C[C@@H](OCCC(=O)O)CN1C(=O)OCc1ccccc1: False
COc1cc(Br)c(/C=N\c2cccc3ccc(OS(=O)(=O)c4ccc([N+](=O)[O-])cc4)cc23)cc1OC: False
O=C(O)C1=C(CO)Oc2cc3c(cc2C1c1ccc2c(c1)OCO2)OCO3 (stereo unspecified): False
Nc1nc(-c2ccco2)cc(-c2ccco2)n1: False

(Q) Query: recorded result category for Nc1nc2c3c(ncn3CC(O)CO2)n1 (stereo unspecified) in this test
(A) False

(Q) Query: recorded result category for Cc1ccc(SCC(CF)OCn2cc(F)c(=O)[nH]c2=O)cc1 (stereo unspecified) in this test
(A) False

(Q) Query: recorded result category for COc1ccc(C2S/C(=C\c3cccc(O)c3)C(=O)N2NC(=O)Cc2ccccc2)cc1 (stereo unspecified) in this test
(A) False

(Q) Query: recorded result category for CCOC(=O)c1nnsc1NC(=O)NN in this test
(A) False

(Q) Query: recorded result category for Nc1ccn(C2OC(CO)C(O)C2(F)F)c(=O)n1 (stereo unspecified) in this test
(A) True

(Q) Query: recorded result category for CCOc1ccc2c(c1)c(CC(=O)O)cn2C in this test
(A) False

====

# Tested on: MDA-MB-435
# method-notes: NCI tumour cell line growth inhibition, 48 h
Activity calls are given as the source filed them. Cut-off read from the data, not from the text of the source: active = GI50 up to about 1.1 µM and inactive = higher.
Permitted responses: active, inactive

# count of solved cases: 4
COc1cccc([C@H]2CC(=O)c3cc4c(cc3N2)OCO4)c1: active
COc1ccc(N[S+]([O-])c2c(C)cc(C)cc2C)cc1 (stereo not given): inactive
O=S(=O)(/N=C(\NO)Nc1ccc(Cl)cc1)C1CC=C(c2ccon2)S1 (stereo not given): inactive
CC(C)=NN/C(=N\c1ccc(Cl)cc1)NS(=O)(=O)c1cc(Cl)c(Oc2ccc([N+](=O)[O-])cc2Cl)c(Cl)c1: inactive

(Q) Query: recorded result category for Cc1nnc([C@@]2(C)CC[C@H]3[C@@H](CC=C4C[C@@H](O)CC[C@@]43C)[C@@H]2CC#N)o1 in this test
(A) inactive

(Q) Query: recorded result category for ClC(Cl)(Cl)C1CCOC1n1nc2ccccc2n1 (stereo not given) in this test
(A) inactive

====

# Tested on: SF-268
# method-notes: NCI tumour cell line growth inhibition, 48 h
Active and inactive are the calls of the source. Cut-off read from the data, not from the text of the source: active = GI50 up to about 1.1 µM and inactive = higher.
Permitted responses: true (1) = active, false (0) = inactive

# count of solved cases: 8
CCN(CC)c1ccc2cc(-c3nc(O)c4ccccc4n3)c(=N)oc2c1: false (0)
c1ccc(-c2nc3sccn3n2)cc1: false (0)
CC(C)=CC1CC(=O)C1(C)Sc1ccccc1 (configuration not stated): false (0)
O=C(CC1C=Cc2ccccc2N1C(=O)c1ccccc1)c1ccccc1 (configuration not stated): false (0)
Cc1oc2ccccc2c(=O)c1Cn1nnc2ccccc21: false (0)
COc1cc2c(cc1OC)C(Cc1cc(Br)c(OC)c(OC)c1)=[N+](C)CC2: false (0)
CCOC(=O)/C(C#N)=C(/NS(=O)(=O)c1cc(C)c(Cl)cc1[S-])[n+]1ccc(N(C)C)cc1: false (0)
COC(=O)c1cc2c3c(cc(NCCN)c2[nH]1)N(C(=O)c1cc2cc(OC)c(OC)c(OC)c2[nH]1)CC3CCl (configuration not stated): true (1)

Here's the next entry for you.
(Q) Query: recorded result category for C[n+]1c2ccccc2n2c3ccccc3c(NCCCn3ccnc3)c(C#N)c21 in this test
(A) false (0)
